Catalogue of pEC50 values
System: HBV rcDNA in HepDE19 cells
protocol_summary: HepDE19 assay with bDNA quantitation of HBV rcDNA
Type: cell-based, hepatitis B virus
test_context: Hepatitis B virus, HepDE19, HepDE19 assay, inhibition of rcDNA formation, bDNA quantitation; read-out: DE-19bDNA EC50
pEC50: −log10 of the molar value.

compound_structure: CN(C(=O)c1c[nH]c(=O)c(C(F)(F)F)c1)[C@@H]1COCc2[nH]c(=O)c3cc(F)c(F)cc3c21
tested_target: HBV rcDNA in HepDE19 cells
pEC50: 5.49
--
compound_structure: CN(C(=O)c1cc2cncc(Br)c2o1)[C@@H]1COCc2[nH]c(=O)c3cc(F)c(F)cc3c21
tested_target: HBV rcDNA in HepDE19 cells
pEC50: 5.82
--
compound_structure: Cc1ccc(C(=O)N(C)[C@@H]2COCc3[nH]c(=O)c4cc(F)c(F)cc4c32)cc1F
tested_target: HBV rcDNA in HepDE19 cells
pEC50: 7.22
--
compound_structure: CN(C(=O)C1(O)CCCCC1)[C@@H]1COCc2[nH]c(=O)c3cc(F)c(F)cc3c21
tested_target: HBV rcDNA in HepDE19 cells
pEC50: 5.12

====

Test system: HBV rcDNA in HepDE19 cells
protocol_summary: HepDE19 assay with bDNA quantitation of HBV rcDNA
Type: cell-based, hepatitis B virus
test_context: Hepatitis B virus, HepDE19, HepDE19 assay, inhibition of rcDNA formation, bDNA quantitation; read-out: DE-19bDNA EC50
Let's look at some molecules and their measured EC50.

molecule: COc1cccc2[nH]c(C(=O)N(C)[C@@H]3COCc4[nH]c(=O)c5cc(F)c(F)cc5c43)cc12
units_of_measure: nM
EC50: 260
--
molecule: Cc1cccc2[nH]c(C(=O)N(C)[C@@H]3COCc4[nH]c(=O)c5cc(F)c(F)cc5c43)cc12
units_of_measure: nM
EC50: 10
--
molecule: CN(C(=O)c1cc2sc(C#N)cc2[nH]1)[C@@H]1COCc2[nH]c(=O)c3cc(F)c(F)cc3c21
units_of_measure: nM
EC50: 5
--
molecule: CN(C(=O)c1cc2cc(F)c(F)cc2[nH]1)[C@H]1COCc2[nH]c(=O)c3cc(F)c(F)cc3c21
units_of_measure: nM
EC50: 2200
--
molecule: CN(C(=O)c1cc2cc(C#N)ccc2[nH]1)[C@@H]1COCc2[nH]c(=O)c3cc(F)c(F)cc3c21
units_of_measure: nM
EC50: 30
--
molecule: Cc1cc(F)cc2[nH]c(C(=O)N(C)C3COCc4[nH]c(=O)c5cc(F)ccc5c43)cc12 (racemic)
units_of_measure: nM
EC50: 20
--
molecule: CN(C(=O)c1cccc(Oc2cccc(F)c2)c1)C1CNCc2[nH]c(=O)c3cc(F)c(F)cc3c21 (single isomer, unassigned)
units_of_measure: nM
EC50: 25000

====

Tested on: HBV rcDNA in HepDE19 cells
protocol_summary: HepDE19 assay with bDNA quantitation of HBV rcDNA
Type: cell-based, hepatitis B virus
test_context: Hepatitis B virus, HepDE19, read-out: DE-19bDNA EC50 (μM)

compound: CN(C(=O)c1ccc(Cl)cc1)[C@@H]1COCc2[nH]c(=O)c3cc(F)c(F)cc3c21 [Compound 99]
EC50: 0.02 µM

====

# pEC50 listing for each entry below
Test system: HBV rcDNA in HepDE19 cells
protocol_summary: HepDE19 assay with bDNA quantitation of HBV rcDNA
Type: cell-based, hepatitis B virus
test_context: Hepatitis B virus, HepDE19, HepDE19 assay, inhibition of rcDNA formation, bDNA quantitation; read-out: DE-19bDNA EC50
pEC50: −log10 of the molar value.

compound: CN(C(=O)c1cc2cc(F)c(F)cc2[nH]1)[C@@H]1COCc2c1c1cc(F)c(F)cc1c(=O)n2CCO
pEC50: 7.52
--
compound: CN(C(=O)c1cc2cc(F)c(F)cc2[nH]1)[C@@H]1COCc2c1c1cc(F)c(F)cc1c(=O)n2CCN
pEC50: 6.41
--
compound: CN(C(=O)c1cc2cccc(C(F)F)n2c1)[C@@H]1COCc2[nH]c(=O)c3cc(F)c(F)cc3c21
pEC50: 7.70
--
compound: COc1c2ccc(C(=O)N(C)[C@@H]3COCc4[nH]c(=O)c5cc(F)c(F)cc5c43)cc2nn1C(F)F
pEC50: 5.34
--
compound: CN(C(=O)c1ccc(C(F)(F)F)c(F)c1)C1COCc2[nH]c(=O)c3ccccc3c21 (racemic)
pEC50: 7.22
--
compound: CN(C(=O)c1cc2ccnc(Cl)c2[nH]1)[C@@H]1COCc2[nH]c(=O)c3cc(F)c(F)cc3c21
pEC50: 6.85
--
compound: CN(C(=O)c1cc2cc(F)c(F)cc2n1COP(=O)(OC(C)(C)C)OC(C)(C)C)[C@@H]1COCc2[nH]c(=O)c3cc(F)c(F)cc3c21
pEC50: 8.00

====

System: HBV rcDNA in HepDE19 cells
protocol_summary: HepDE19 assay with bDNA quantitation of HBV rcDNA
Type: cell-based, hepatitis B virus
test_context: Hepatitis B virus, HepDE19, HepDE19 assay, inhibition of rcDNA formation, bDNA quantitation; read-out: DE-19bDNA EC50
compounds and their reported EC50

compound: CNS(=O)(=O)c1cccc(C(=O)N(C)C2CNCc3[nH]c(=O)c4cc(F)c(F)cc4c32)c1 (single isomer, unassigned)
tested_target: HBV rcDNA in HepDE19 cells
units_of_measure: nM
EC50: 6800

compound: O=C(N[C@@H]1COCc2[nH]c(=O)c3cc(F)c(F)cc3c21)c1ccc(C(F)(F)F)c(F)c1
tested_target: HBV rcDNA in HepDE19 cells
units_of_measure: nM
EC50: 580

compound: CN(C(=O)c1ccc2c(c1)CCC2)[C@@H]1COCc2[nH]c(=O)c3cc(F)c(F)cc3c21
tested_target: HBV rcDNA in HepDE19 cells
units_of_measure: nM
EC50: 40

compound: CN(C(=O)c1cc(F)c(Cl)c(F)c1)C1CNCc2[nH]c(=O)c3cc(F)ccc3c21 (single isomer, unassigned)
tested_target: HBV rcDNA in HepDE19 cells
units_of_measure: nM
EC50: 19600

compound: CN(C(=O)c1ccc(C#N)c(F)c1)[C@@H]1COCc2[nH]c(=O)c3cc(F)c(F)cc3c21
tested_target: HBV rcDNA in HepDE19 cells
units_of_measure: nM
EC50: 40

compound: [2H][C@@]1(N(C(=O)c2cc3cc(F)c(C(F)F)cc3[nH]2)[13C]([2H])([2H])[2H])COCc2[nH]c(=O)c3cc(F)c(F)cc3c21
tested_target: HBV rcDNA in HepDE19 cells
units_of_measure: nM
EC50: 10

compound: CN(C(=O)c1ccc2ccc(Cl)n2c1)[C@@H]1COCc2[nH]c(=O)c3cc(F)c(F)cc3c21
tested_target: HBV rcDNA in HepDE19 cells
units_of_measure: nM
EC50: 100

compound: CN(C(=O)c1cc2cc(F)c(F)cc2[nH]1)[C@@H]1CCCc2[nH]c(=O)c3cc(F)ccc3c21
tested_target: HBV rcDNA in HepDE19 cells
units_of_measure: nM
EC50: 20

compound: CN(C(=O)c1cc2c(C#N)cc(F)cc2[nH]1)[C@@H]1COCc2[nH]c(=O)c3cc(F)c(F)cc3c21
tested_target: HBV rcDNA in HepDE19 cells
units_of_measure: nM
EC50: 30

compound: CN(C(=O)c1cc2cc(F)ccc2[nH]1)[C@@H]1CCCc2[nH]c(=O)c3cc(F)ccc3c21
tested_target: HBV rcDNA in HepDE19 cells
units_of_measure: nM
EC50: 10

compound: CN(C(=O)C(F)(F)c1cccc(Br)c1)[C@@H]1COCc2[nH]c(=O)c3cc(F)c(F)cc3c21
tested_target: HBV rcDNA in HepDE19 cells
units_of_measure: nM
EC50: 7700

compound: CN(C(=O)c1cc(F)c(C(F)F)c(F)c1)[C@@H]1COCc2[nH]c(=O)c3cc(F)c(F)cc3c21
tested_target: HBV rcDNA in HepDE19 cells
units_of_measure: nM
EC50: 160

compound: CN(C(=O)c1ccc(Cl)c(=O)[nH]1)[C@@H]1COCc2[nH]c(=O)c3cc(F)c(F)cc3c21
tested_target: HBV rcDNA in HepDE19 cells
units_of_measure: nM
EC50: 10000

compound: CN(C(=O)c1cc(F)c(F)c(F)c1)[C@@H]1COCc2[nH]c(=O)c3cc(F)c(F)cc3c21
tested_target: HBV rcDNA in HepDE19 cells
units_of_measure: nM
EC50: 90
